B1: ATL3 (parent)
chain: HFKKTKKMGGKDFSFRYQQELEEE

Variants of: B1
experiment_summary: protein stability index of a GFP-peptide fusion (GPS, HEK-293T) (PSI 1-6); higher = more stable;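 also: lentivirally expressed fusions sorted by FACS into six bins by GFP to DsRed ratio, PSI derived from sequencing read proportions per bin multiplied by bin number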
condition_details: c terminus: a fixed tail appended
Reported values of protein stability index for individual entries
Keep the answer to the number alone.

variant_designation	endpoint_label	value_reported
Q18E	protein stability index	2.73

Given the variant D12E , what is its reported protein stability index?
2.34

K6W , same question.
1.51

E22L , same question.
1.99

Sourced from the supplement of paper PMC10567573
